Provenance of the data: patent US10047098B2

target: Recombinant human soluble BACE1 catalytic domain (Homo sapiens (Human), UniProt P56817); assay: BACE1 HTRF FRET Assay; settings: Ki calculated from IC50 using the Cheng-Prusoff equation; QSY7-APPswe-Eu substrate, pH 5.0; read-out: BACE-1 Ki
Sequence (P56817 75-416): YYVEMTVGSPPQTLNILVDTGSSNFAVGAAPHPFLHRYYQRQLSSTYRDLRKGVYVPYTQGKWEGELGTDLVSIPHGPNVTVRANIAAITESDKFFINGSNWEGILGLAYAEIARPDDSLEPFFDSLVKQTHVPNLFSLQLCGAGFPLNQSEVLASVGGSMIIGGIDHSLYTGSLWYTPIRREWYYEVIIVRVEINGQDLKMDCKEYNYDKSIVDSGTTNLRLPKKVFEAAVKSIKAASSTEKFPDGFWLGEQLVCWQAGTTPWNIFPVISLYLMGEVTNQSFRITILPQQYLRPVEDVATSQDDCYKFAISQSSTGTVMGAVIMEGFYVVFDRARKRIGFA
Each record here notes measured pKi.
Schema: pKi number; meaning minus log10 of the concentration expressed in molar units.

Example cases with answers are listed next.
compound: Cc1cc([C@H]2C[C@H]3C(=O)N(C)C(=N)N[C@@]3(c3cc(F)ccc3F)CO2)on1
recorded.result: 6.88
//
compound: COC[C@H]1C[C@H]2C(=O)N(C)C(=N)N[C@@]2(c2cc(OCC3CC3)ccc2F)CO1 [Example 90]
recorded.result: 7.68

For the compound shown here, C[C@H]1C[C@H]2C(=O)N(C)C(=N)N[C@@]2(c2cc(Oc3ncc(F)cc3F)ccc2F)CO1 [Example 79] , give the reported pKi.
7.36
